# target: Aβ42 (amyloid-β; Aβ) (Homo sapiens, UniProt P05067)
# Construct: gene APP; Abeta42 peptide of 42 residues (672-713 of APP, recalled); cut from amyloid precursor protein; aggregating peptide, monomer to fibril
# Sequence (P05067 672-713): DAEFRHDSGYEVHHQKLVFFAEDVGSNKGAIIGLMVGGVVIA
# procedure.details: thioflavin-T fluorescence, aggregation inhibition
# Assay type: biochemical
# reported.conditions: read-out: IC50 (Aβ/hIAPP, μM) ^a
# Text: thioflavin-T fluorescence, aggregation inhibition on Aβ42 (amyloid-β; Aβ)
measure: IC50 (µM)

[
  {
    "compound": "Oc1cc(O)c2c(c1)O[C@@]1(c3ccc(O)c(O)c3)Oc3c4c(cc(O)c3[C@@H]2[C@H]1O)O[C@H](c1ccc(O)c(O)c1)[C@@H](O)C4",
    "measure": "IC50",
    "value.measured": 6.8
  },
  {
    "compound": "Oc1cc(O)c2c(c1)O[C@H](c1ccc(O)c(O)c1)[C@@H](O)C2 [compound 9, (+)-catechin]",
    "measure": "IC50",
    "value.measured": 56.8
  },
  {
    "compound": "Oc1cc(O)c2c(c1)O[C@@]1(c3ccc(O)c(O)c3)Oc3cc(O)c4c(c3[C@@H]2[C@H]1O)O[C@H](c1ccc(O)c(O)c1)[C@H](O)C4",
    "measure": "IC50",
    "value.measured": 4.8
  },
  {
    "compound": "O=C(O[C@@H]1Cc2c(O)cc(O)cc2O[C@@H]1c1cc(O)c(O)c(O)c1)c1cc(O)c(O)c(O)c1 [EGCG, reference compound]",
    "measure": "IC50",
    "value.measured": 3.8
  }
]

* * *

# target: Aβ42 (amyloid-β; Aβ) (Homo sapiens)
# Construct: gene APP; Abeta42 peptide of 42 residues (672-713 of APP, recalled); cut from amyloid precursor protein; aggregating peptide, monomer to fibril
# procedure.details: thioflavin-T fluorescence, aggregation inhibition
# Format: biochemical
# reported.conditions: read-out: IC50 (Aβ/hIAPP, μM) ^a
# IC50 per record follows

[
  {
    "molecule": "Oc1cc(O)c2c(c1)O[C@@]1(c3ccc(O)c(O)c3)Oc3cc4c(c(O)c3[C@@H]2[C@H]1O)C[C@H](O)[C@@H](c1ccc(O)c(O)c1)O4",
    "inequality.sign": "=",
    "IC50 (µM)": 5.7
  },
  {
    "molecule": "Oc1cc(O)c2c(c1)O[C@@]1(c3ccc(O)c(O)c3)Oc3cc4c(c(O)c3[C@@H]2[C@H]1O)C[C@@H](O)[C@@H](c1ccc(O)c(O)c1)O4",
    "inequality.sign": "=",
    "IC50 (µM)": 4.2
  },
  {
    "molecule": "Oc1cc(O)c2c(c1)O[C@H](c1ccc(O)c(O)c1)[C@H](O)C2 [compound 8, (−)-epicatechin]",
    "inequality.sign": "=",
    "IC50 (µM)": 41.7
  },
  {
    "molecule": "Oc1cc(O)c2c(c1)O[C@@]1(c3ccc(O)c(O)c3)Oc3c4c(cc(O)c3[C@@H]2[C@H]1O)O[C@H](c1ccc(O)c(O)c1)[C@H](O)C4",
    "inequality.sign": "=",
    "IC50 (µM)": 2.4
  },
  {
    "molecule": "COc1cc(OC)c2c(c1)O[C@@]1(c3ccc(OC)c(OC)c3)Oc3cc(OC)c4c(c3[C@@H]2[C@H]1O)O[C@H](c1ccc(OC)c(OC)c1)[C@H](O)C4",
    "inequality.sign": ">",
    "IC50 (µM)": 100
  }
]

* * *

# target: Aβ42 (amyloid-β; Aβ) (Homo sapiens, UniProt P05067)
# Construct: gene APP; Abeta42 peptide of 42 residues (672-713 of APP, recalled); cut from amyloid precursor protein; aggregating peptide, monomer to fibril
# procedure.details: thioflavin-T fluorescence, disaggregation of preformed aggregates
# Assay type: biochemical
# reported.conditions: read-out: EC50 (Aβ/hIAPP, μM) ^a
Mark true (1) only when EC50 stays strictly below 10 µM. Values equal to the cut-off are false (0).

[
  {
    "molecule": "Oc1cc(O)c2c(c1)O[C@@]1(c3ccc(O)c(O)c3)Oc3cc(O)c4c(c3[C@@H]2[C@H]1O)O[C@H](c1ccc(O)c(O)c1)[C@H](O)C4",
    "label.value": "true (1)"
  },
  {
    "molecule": "Oc1cc(O)c2c(c1)O[C@@]1(c3ccc(O)c(O)c3)Oc3c4c(cc(O)c3[C@@H]2[C@H]1O)O[C@H](c1ccc(O)c(O)c1)[C@H](O)C4",
    "label.value": "true (1)"
  },
  {
    "molecule": "Oc1cc(O)c2c(c1)O[C@@]1(c3ccc(O)c(O)c3)Oc3cc4c(c(O)c3[C@@H]2[C@H]1O)C[C@@H](O)[C@@H](c1ccc(O)c(O)c1)O4",
    "label.value": "false (0)"
  },
  {
    "molecule": "COc1cc(OC)c2c(c1)O[C@@]1(c3ccc(OC)c(OC)c3)Oc3cc(OC)c4c(c3[C@@H]2[C@H]1O)O[C@H](c1ccc(OC)c(OC)c1)[C@H](O)C4",
    "label.value": "false (0)"
  },
  {
    "molecule": "Oc1cc(O)c2c(c1)O[C@H](c1ccc(O)c(O)c1)[C@H](O)C2 [compound 8, (−)-epicatechin]",
    "label.value": "false (0)"
  },
  {
    "molecule": "O=C(O[C@@H]1Cc2c(O)cc(O)cc2O[C@@H]1c1cc(O)c(O)c(O)c1)c1cc(O)c(O)c(O)c1 [EGCG, reference compound]",
    "label.value": "true (1)"
  }
]

* * *

# target: hIAPP (human islet amyloid polypeptide) (Homo sapiens, UniProt P10997)
# Construct: gene IAPP; mature peptide of 37 residues (34-70 of the precursor, recalled), bought from KareBay Biochem; aggregating peptide, monomer to fibril
# Sequence (P10997 34-70): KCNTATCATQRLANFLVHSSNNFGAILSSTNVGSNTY
# procedure.details: thioflavin-T fluorescence, aggregation inhibition
# Assay type: biochemical
# reported.conditions: read-out: IC50 (Aβ/hIAPP, μM) ^a

[
  {
    "molecule": "Oc1cc(O)c2c(c1)O[C@@]1(c3ccc(O)c(O)c3)Oc3cc(O)c4c(c3[C@@H]2[C@H]1O)O[C@H](c1ccc(O)c(O)c1)[C@H](O)C4 [compound 1, procyanidin A2]",
    "measurement.units": "µM",
    "inequality.sign": "=",
    "IC50": 8.4
  },
  {
    "molecule": "Oc1cc(O)c2c(c1)O[C@H](c1ccc(O)c(O)c1)[C@@H](O)C2 [compound 9, (+)-catechin]",
    "measurement.units": "µM",
    "inequality.sign": "=",
    "IC50": 40.9
  },
  {
    "molecule": "Oc1cc(O)c2c(c1)O[C@H](c1ccc(O)c(O)c1)[C@H](O)C2 [compound 8, (−)-epicatechin]",
    "measurement.units": "µM",
    "inequality.sign": "=",
    "IC50": 38.9
  },
  {
    "molecule": "O=C(O[C@@H]1Cc2c(O)cc(O)cc2O[C@@H]1c1cc(O)c(O)c(O)c1)c1cc(O)c(O)c(O)c1 [EGCG, reference compound]",
    "measurement.units": "µM",
    "inequality.sign": "=",
    "IC50": 1.1
  },
  {
    "molecule": "Oc1cc(O)c2c(c1)O[C@@]1(c3ccc(O)c(O)c3)Oc3cc4c(c(O)c3[C@@H]2[C@H]1O)C[C@@H](O)[C@@H](c1ccc(O)c(O)c1)O4 [compound 3, proanthocyanidin A6]",
    "measurement.units": "µM",
    "inequality.sign": "=",
    "IC50": 16.4
  },
  {
    "molecule": "COc1cc(OC)c2c(c1)O[C@@]1(c3ccc(OC)c(OC)c3)Oc3cc(OC)c4c(c3[C@@H]2[C@H]1O)O[C@H](c1ccc(OC)c(OC)c1)[C@H](O)C4 [compound 7, 7]",
    "measurement.units": "µM",
    "inequality.sign": ">",
    "IC50": 100
  },
  {
    "molecule": "Oc1cc(O)c2c(c1)O[C@@]1(c3ccc(O)c(O)c3)Oc3cc4c(c(O)c3[C@@H]2[C@H]1O)C[C@H](O)[C@@H](c1ccc(O)c(O)c1)O4 [compound 4, 4]",
    "measurement.units": "µM",
    "inequality.sign": "=",
    "IC50": 16.8
  },
  {
    "molecule": "Oc1cc(O)c2c(c1)O[C@@]1(c3ccc(O)c(O)c3)Oc3c4c(cc(O)c3[C@@H]2[C@H]1O)O[C@H](c1ccc(O)c(O)c1)[C@H](O)C4 [compound 5, proanthocyanidin A7]",
    "measurement.units": "µM",
    "inequality.sign": "=",
    "IC50": 13.4
  },
  {
    "molecule": "Oc1cc(O)c2c(c1)O[C@@]1(c3ccc(O)c(O)c3)Oc3c4c(cc(O)c3[C@@H]2[C@H]1O)O[C@H](c1ccc(O)c(O)c1)[C@@H](O)C4 [compound 6, 6]",
    "measurement.units": "µM",
    "inequality.sign": "=",
    "IC50": 11.6
  }
]
